Every entry's value here was drawn from ChEMBL document CHEMBL1764974.

tested on: Histamine H3 receptor (Homo sapiens, UniProt Q9Y5N1)
Sequence (Q9Y5N1 whole entry): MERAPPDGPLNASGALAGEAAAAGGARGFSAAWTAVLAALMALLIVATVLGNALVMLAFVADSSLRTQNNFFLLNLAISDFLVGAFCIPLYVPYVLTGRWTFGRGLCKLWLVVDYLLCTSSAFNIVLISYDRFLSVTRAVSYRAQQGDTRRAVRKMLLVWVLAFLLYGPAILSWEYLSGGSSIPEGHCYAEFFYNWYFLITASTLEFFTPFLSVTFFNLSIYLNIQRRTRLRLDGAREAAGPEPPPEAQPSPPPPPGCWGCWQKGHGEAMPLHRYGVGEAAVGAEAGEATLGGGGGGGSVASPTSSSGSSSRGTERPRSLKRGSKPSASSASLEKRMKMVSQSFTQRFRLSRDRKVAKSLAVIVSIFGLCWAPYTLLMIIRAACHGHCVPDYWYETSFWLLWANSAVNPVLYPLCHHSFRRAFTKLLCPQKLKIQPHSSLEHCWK
procedure text: Antagonist activity at human recombinant histamine H3 receptor expressed in CHO cells assessed as inhibition of histamine-induced GTP-gammaS binding
pKi: −log10 of the molar value.
endpoint: pKi

In the examples that follow, each entry is paired with its recorded pKi.
[[record]]
structure_smiles = "CN1CCC[C@@H]1Cn1nc(Cc2ccc(C(C)(C)C)cc2)c2ccccc2c1=O"
endpoint = "pKi"
reported_measurement = "< 6.20"

[[record]]
structure_smiles = "COC(=O)c1ccc(Cc2nn(C[C@H]3CCCN3C)c(=O)c3ccccc23)cc1"
endpoint = "pKi"
reported_measurement = "< 6.20"

[[record]]
structure_smiles = "CN1CCC[C@H]1Cn1nc(Cc2ccc(Cl)cc2)c2ccccc2c1=O"
endpoint = "pKi"
reported_measurement = "< 6.40"

[[record]]
structure_smiles = "CN1CCC[C@@H]1Cn1nc(Cc2ccc(F)cc2)c2ccccc2c1=O"
endpoint = "pKi"
reported_measurement = "< 6.30"


Then there is this compound:
Please give the measured pKi for this compound: `CN1CCC[C@@H]1Cn1nc(Cc2ccc(F)c(F)c2)c2ccccc2c1=O`
< 6.20
